System: SOS1 protein (Homo sapiens)
Sequence (Q07889 1-1333): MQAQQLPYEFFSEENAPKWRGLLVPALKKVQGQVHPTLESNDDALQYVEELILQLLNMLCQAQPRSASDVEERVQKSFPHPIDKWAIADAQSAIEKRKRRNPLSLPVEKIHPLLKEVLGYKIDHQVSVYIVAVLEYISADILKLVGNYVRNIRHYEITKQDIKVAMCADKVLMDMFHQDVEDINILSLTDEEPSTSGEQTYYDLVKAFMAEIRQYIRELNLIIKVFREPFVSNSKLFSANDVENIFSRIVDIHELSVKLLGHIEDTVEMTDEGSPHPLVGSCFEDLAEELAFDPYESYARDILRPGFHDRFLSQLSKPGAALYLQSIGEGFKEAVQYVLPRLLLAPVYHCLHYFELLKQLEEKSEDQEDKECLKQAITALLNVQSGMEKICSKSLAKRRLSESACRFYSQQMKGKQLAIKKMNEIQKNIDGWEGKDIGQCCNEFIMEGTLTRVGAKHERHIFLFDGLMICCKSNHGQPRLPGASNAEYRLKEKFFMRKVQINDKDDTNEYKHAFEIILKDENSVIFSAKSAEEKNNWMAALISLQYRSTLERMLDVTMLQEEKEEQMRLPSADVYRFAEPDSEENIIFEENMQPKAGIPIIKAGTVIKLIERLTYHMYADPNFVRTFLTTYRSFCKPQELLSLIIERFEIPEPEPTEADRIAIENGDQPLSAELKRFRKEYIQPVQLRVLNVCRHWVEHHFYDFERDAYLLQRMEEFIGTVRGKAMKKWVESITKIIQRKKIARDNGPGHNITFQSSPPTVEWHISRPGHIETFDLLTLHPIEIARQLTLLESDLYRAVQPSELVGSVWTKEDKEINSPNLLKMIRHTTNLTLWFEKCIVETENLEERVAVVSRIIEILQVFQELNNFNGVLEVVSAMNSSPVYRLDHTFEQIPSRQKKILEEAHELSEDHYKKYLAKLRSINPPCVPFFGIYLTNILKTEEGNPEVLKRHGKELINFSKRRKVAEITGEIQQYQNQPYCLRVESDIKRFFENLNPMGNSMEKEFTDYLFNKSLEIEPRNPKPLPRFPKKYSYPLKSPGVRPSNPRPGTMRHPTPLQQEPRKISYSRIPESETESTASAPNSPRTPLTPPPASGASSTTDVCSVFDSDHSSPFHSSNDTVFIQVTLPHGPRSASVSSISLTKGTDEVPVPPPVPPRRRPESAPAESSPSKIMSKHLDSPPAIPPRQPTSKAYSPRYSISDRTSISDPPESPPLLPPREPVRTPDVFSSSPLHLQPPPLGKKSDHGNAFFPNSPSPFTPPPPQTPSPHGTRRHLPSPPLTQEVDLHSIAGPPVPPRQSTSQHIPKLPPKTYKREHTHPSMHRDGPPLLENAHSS
Test Name: SOS1 degradation assay (Western blot), NCI-H358 cells
Assay type: cell-based
Parameters: The degradation of SOS1 by the compounds was investigated on KRAS G12C mutant human non-small cell lung cancer cells NCI-H358; host or cells: NCI-H358 (human cancer cell lines)
Protocol Conditions: SOS1 degradation, NCI-H358 cells, 24 h, Western blot; read-out: NCI-H358 (G12C) DC50
Measurement Kind: DC50

Some solved cases for reference:
For record COc1cc2nc(C)nc(N[C@H](C)c3cc(N)cc(C(F)(F)F)c3)c2cc1C1CCC(C(=O)N2CCC(CCOCC3CCN(C(=O)c4ccc5c(c4)C(=O)N(C4CCC(=O)NC4=O)C5=O)CC3)CC2)CC1 (stereo partly drawn) the listed DC50 is < 50 nM

For record `COc1cc2nc(C)nc(N[C@H](C)c3cc(-c4c(Cl)cccc4CN(C)C)cs3)c2cc1[C@H]1CC[C@H](C(=O)N2CCC(CCCC3CCN(C(=O)c4ccc(Cl)c(N5CCC(=O)NC5=O)c4)CC3)CC2)CC1` the listed DC50 is 50 to 100 nM

For record `COc1cc2nc(C)nc(N[C@H](C)c3cc(-c4c(Cl)cccc4CN(C)C)cs3)c2cc1[C@H]1CC[C@H](C(=O)N2CCC(COCCC3CCN(C(=O)c4ccc(Cl)c(N5CCC(=O)NC5=O)c4)CC3)CC2)CC1` the listed DC50 is < 50 nM

For record `COc1cc2nc(C)nc(N[C@H](C)c3cc(N)cc(C(F)(F)F)c3)c2cc1[C@H]1CC[C@H](C(=O)N2CCN(CC3CCC4(CC3)CCN(C(=O)c3ccc(Cl)c(N5CCC(=O)NC5=O)c3)CC4)CC2)CC1` the listed DC50 is < 50 nM

For record `COc1cc2nc(C)nc(N[C@H](C)c3cc(N)cc(C(F)(F)F)c3)c2cc1[C@H]1CC[C@H](C(=O)N2CCC(COCC3CCN(C(=O)c4ccc(Cl)c(N5CCC(=O)NC5=O)c4)CC3)CC2)CC1` the listed DC50 is < 50 nM

***
For record COc1cc2nc(C)nc(N[C@H](C)c3cc(N)cc(C(F)(F)F)c3)c2cc1C1=CCC(C(=O)N2CCN(CC3CCC4(CC3)CCN(C(=O)c3ccc(Cl)c(N5CCC(=O)NC5=O)c3)CC4)CC2)CC1 (stereo partly drawn) the listed DC50 is < 50 nM

For record `CCNc1cc([C@@H](C)Nc2nc(C)nc3cc(OC)c([C@H]4CC[C@H](C(=O)N5CCN(CC6CCC7(CC6)CCN(C(=O)c6ccc(Cl)c(N8CCC(=O)NC8=O)c6)CC7)CC5)CC4)cc23)cc(C(F)(F)F)c1` the listed DC50 is 1000 to 10000 nM

For record `COc1cc2nc(C)nc(N[C@H](C)c3cc(N)cc(C(F)(F)F)c3)c2cc1[C@H]1CC[C@H](C(=O)N(C)CC2CCC3(CC2)CCN(C(=O)c2ccc(Cl)c(N4CCC(=O)NC4=O)c2)CC3)CC1` the listed DC50 is 1000 to 10000 nM

Source of measurements: patent US20240261417A1
